Target: TYK2 JH1 catalytic (human) (UniProt P29597)
Sequence (P29597 whole entry, looked up): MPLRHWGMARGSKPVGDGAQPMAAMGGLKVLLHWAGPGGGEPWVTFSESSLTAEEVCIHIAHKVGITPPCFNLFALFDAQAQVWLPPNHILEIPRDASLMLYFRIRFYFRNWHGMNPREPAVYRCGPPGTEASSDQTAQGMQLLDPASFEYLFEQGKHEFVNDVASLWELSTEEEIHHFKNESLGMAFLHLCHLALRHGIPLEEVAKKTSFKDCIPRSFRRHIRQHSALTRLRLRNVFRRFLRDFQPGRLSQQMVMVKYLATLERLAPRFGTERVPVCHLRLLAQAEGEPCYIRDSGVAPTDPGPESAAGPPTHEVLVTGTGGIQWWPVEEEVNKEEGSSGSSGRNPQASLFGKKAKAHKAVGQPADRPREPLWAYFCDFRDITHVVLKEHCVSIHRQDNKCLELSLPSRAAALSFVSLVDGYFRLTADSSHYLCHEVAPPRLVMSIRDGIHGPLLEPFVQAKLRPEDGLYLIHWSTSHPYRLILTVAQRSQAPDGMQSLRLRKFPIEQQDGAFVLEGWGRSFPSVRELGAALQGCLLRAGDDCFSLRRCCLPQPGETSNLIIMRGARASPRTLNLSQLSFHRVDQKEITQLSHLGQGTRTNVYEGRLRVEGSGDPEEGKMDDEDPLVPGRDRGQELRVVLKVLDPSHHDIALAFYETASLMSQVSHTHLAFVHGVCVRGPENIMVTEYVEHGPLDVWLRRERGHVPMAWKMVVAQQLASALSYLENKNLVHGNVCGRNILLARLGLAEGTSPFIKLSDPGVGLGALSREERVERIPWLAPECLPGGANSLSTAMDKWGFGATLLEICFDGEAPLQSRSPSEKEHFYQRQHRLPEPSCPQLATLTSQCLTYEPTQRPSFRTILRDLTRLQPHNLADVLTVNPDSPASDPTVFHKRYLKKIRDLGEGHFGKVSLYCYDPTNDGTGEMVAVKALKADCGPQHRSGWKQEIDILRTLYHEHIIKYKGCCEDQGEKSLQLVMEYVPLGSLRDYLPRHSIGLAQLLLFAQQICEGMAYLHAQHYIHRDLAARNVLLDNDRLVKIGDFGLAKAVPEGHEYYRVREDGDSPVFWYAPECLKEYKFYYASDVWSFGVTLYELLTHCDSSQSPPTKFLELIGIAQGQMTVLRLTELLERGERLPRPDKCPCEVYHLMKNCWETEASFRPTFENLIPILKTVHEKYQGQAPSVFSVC
Assay: KINOMEscan competition binding
Conditions: compound 10.0 µM
Catalogue of kinase still bound, per cent of control values

Consider the molecule CCCS(=O)(=O)Nc1ccc(F)c(C(=O)c2c[nH]c3ncc(Cl)cc23)c1F and give its measured kinase still bound, per cent of control.
24%

Given COc1cc2c(Nc3ccc(NC(=O)c4ccccc4)cc3)ncnc2cc1OCCCN1CCOCC1 , state its recorded kinase still bound, per cent of control.
84%

Reported kinase still bound, per cent of control, molecule COc1cc(C)c(Sc2cnc(NC(=O)c3ccc(CNC(C)C(C)C)cc3)s2)cc1C(=O)N1CCN(C(C)=O)CC1 (stereo not given) : ____
100%

kinase still bound, per cent of control for N#C/C(=C1/Nc2ccccc2S1)c1ccnc(NCCc2cccnc2)n1 ?
22%
